Each entry below lists one item and its recorded MIC value.
Tested on: Staphylococcus aureus
PROTOCOL NOTES: Antibacterial activity against fluoroquinolone-resistant Staphylococcus aureus 1199B overexpressing NorA after 24 hrs by two fold microdilution method
Type: functional

Known results for molecules:
INSERT INTO assay_data (molecule, target_desc, metric_name, observed_result) VALUES
  ('OB(O)c1ccc(OCCc2ccccc2)nc1', 'Staphylococcus aureus', 'MIC', '> 128 µg/mL'),
  ('OB(O)c1ccc(Oc2ccc(Cl)cc2Cl)nc1', 'Staphylococcus aureus', 'MIC', '128 µg/mL'),
  ('OB(O)c1ccc(OCCCCc2ccccc2)nc1', 'Staphylococcus aureus', 'MIC', '32 µg/mL'),
  ('OB(O)c1ccc(OCc2ccccc2)nc1', 'Staphylococcus aureus', 'MIC', '> 128 µg/mL'),
  ('OB(O)c1cncc(OCc2ccccc2)c1', 'Staphylococcus aureus', 'MIC', '> 128 µg/mL');

Challenge: Name the recorded MIC of the item OB(O)c1ccc(SCc2ccccc2)nc1 in your answer.
Response given: 64 µg/mL

Challenge: Name the recorded MIC of the item CCCCOc1ccc(B(O)O)cn1 in your answer.
Response given: > 128 µg/mL

Challenge: Name the recorded MIC of the item OB(O)c1ccc(OCCCc2ccccc2)nc1 in your answer.
Response given: > 128 µg/mL

Challenge: Name the recorded MIC of the item CCCCCCOc1ccc(B(O)O)cn1 in your answer.
Response given: > 128 µg/mL

Challenge: Name the recorded MIC of the item OB(O)c1ccc(OCCCCCCCc2ccccc2)nc1 in your answer.
Response given: > 16 µg/mL

Challenge: Name the recorded MIC of the item OB(O)c1ccc(NCc2ccccc2)nc1 in your answer.
Response given: > 128 µg/mL

Challenge: Name the recorded MIC of the item CCCCCOc1ccc(B(O)O)cn1 in your answer.
Response given: > 128 µg/mL

Challenge: Name the recorded MIC of the item O=C(O)c1cn(C2CC2)c2cc(N3CCNCC3)c(F)cc2c1=O [CIPROFLOXACIN] in your answer.
Response given: 8 µg/mL

----------
TARGET DESC: Quinolone resistance protein NorA (Staphylococcus aureus) (UniProt P0A0J7)
Sequence (whole entry): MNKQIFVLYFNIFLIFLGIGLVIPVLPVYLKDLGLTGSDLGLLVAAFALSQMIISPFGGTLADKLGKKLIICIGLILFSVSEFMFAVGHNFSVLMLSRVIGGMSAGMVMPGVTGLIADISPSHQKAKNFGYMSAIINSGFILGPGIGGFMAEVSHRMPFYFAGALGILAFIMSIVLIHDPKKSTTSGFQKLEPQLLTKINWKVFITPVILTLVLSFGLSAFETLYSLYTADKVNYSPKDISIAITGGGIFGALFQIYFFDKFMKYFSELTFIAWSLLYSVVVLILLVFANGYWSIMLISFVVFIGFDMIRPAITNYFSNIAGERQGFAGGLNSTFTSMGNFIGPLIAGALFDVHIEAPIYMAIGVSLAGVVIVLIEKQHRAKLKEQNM
PROTOCOL NOTES: Inhibition of NorA in fluoroquinolone-resistant Staphylococcus aureus 1199B assessed as minimum modulatory concentration require to potentiate 16 ug/ml norfloxacin-induced antibacterial activity
METRIC NAME: MMC (µg/mL)
Entry rule: numbers only, all in µg/mL.

Known results for molecules:
INSERT INTO results (smiles_record, observed_result) VALUES
  ('CCCCCCCOc1ccc(B(O)O)cn1', 8),
  ('OB(O)c1ccc(OCc2ccc(Cl)cc2)nc1', 16);

Challenge: Name the recorded MMC of the item OB(O)c1ccc(OCCc2ccccc2)nc1 in your answer.
Response given: 16

Challenge: Name the recorded MMC of the item OB(O)c1ccc(Oc2ccc(Cl)cc2Cl)nc1 in your answer.
Response given: 32

----------
TARGET DESC: Quinolone resistance protein NorA (Staphylococcus aureus) (UniProt P0A0J7)
PROTOCOL NOTES: Inhibition of NorA in fluoroquinolone-resistant Staphylococcus aureus 1199B assessed as minimum modulatory concentration require to potentiate 4 ug/ml ciprofloxacin-induced antibacterial activity
Each entry below lists one item and its recorded MMC value.
Entry rule: numbers only, all in µg/mL.

Known results for compounds:
INSERT INTO measurements (smiles_record, target_desc, unit_descriptor, observed_result) VALUES
  ('OB(O)c1ccc(Oc2ccc(Cl)cc2Cl)nc1', 'Quinolone resistance protein NorA (Staphylococcus aureus) (UniProt P0A0J7)', 'µg/mL', 1),
  ('OB(O)c1ccc(OCc2ccc(Cl)cc2)nc1', 'Quinolone resistance protein NorA (Staphylococcus aureus) (UniProt P0A0J7)', 'µg/mL', 1);

Challenge: Name the recorded MMC of the item OB(O)c1ccc(OCCc2ccccc2)nc1 in your answer.
Response given: 1

----------
Test system: Staphylococcus aureus
PROTOCOL NOTES: Antibacterial activity against methicillin-susceptible […] Staphylococcus aureus ATCC 25923 after 24 hrs by two fold microdilution method
Assay type: functional
CONDITION CONTEXT: ATCC 25923, 24 h
METRIC NAME: MIC

Known results for compounds:
INSERT INTO results (smiles_record, target_desc, metric_name, observed_result) VALUES
  ('OB(O)c1cncc(OCc2ccccc2)c1', 'Staphylococcus aureus', 'MIC', '> 128 mg/L'),
  ('CCCCOc1ccc(B(O)O)cn1', 'Staphylococcus aureus', 'MIC', '> 128 mg/L'),
  ('CC1(C)S[C@@H]2[C@H](NC(=O)[C@H](N)c3ccccc3)C(=O)N2[C@H]1C(=O)O', 'Staphylococcus aureus', 'MIC', '0.25 mg/L'),
  ('OB(O)c1ccc(OCCCCc2ccccc2)nc1', 'Staphylococcus aureus', 'MIC', '64 mg/L'),
  ('CCCCCCCOc1ccc(B(O)O)cn1', 'Staphylococcus aureus', 'MIC', '> 16 mg/L'),
  ('OB(O)c1ccc(OCc2ccc(Cl)cc2)nc1', 'Staphylococcus aureus', 'MIC', '≥ 128 mg/L'),
  ('CCCOc1ccc(B(O)O)cn1', 'Staphylococcus aureus', 'MIC', '> 128 mg/L'),
  ('OB(O)c1ccc(NCc2ccccc2)nc1', 'Staphylococcus aureus', 'MIC', '> 128 mg/L');

Please examine the following record next.
Challenge: Name the recorded MIC of the item COc1cc(COc2ccc(B(O)O)cn2)cc(OC)c1OC in your answer.
Response given: > 128 mg/L

----------
Each entry below lists one item and its recorded MMC value.
TARGET DESC: Quinolone resistance protein NorA (Staphylococcus aureus) (UniProt P0A0J7)
PROTOCOL NOTES: Inhibition of NorA in fluoroquinolone-resistant Staphylococcus aureus 1199B assessed as minimum modulatory concentration require to potentiate 2 ug/ml ciprofloxacin-induced antibacterial activity

Known results for compounds:
INSERT INTO assay_data (smiles_record, target_desc, observed_result) VALUES
  ('CCCOc1ccc(B(O)O)cn1', 'Quinolone resistance protein NorA (Staphylococcus aureus) (UniProt P0A0J7)', '> 128 µg/mL'),
  ('OB(O)c1cncc(OCc2ccccc2)c1', 'Quinolone resistance protein NorA (Staphylococcus aureus) (UniProt P0A0J7)', '> 128 µg/mL');

Please examine the following record next.
Challenge: Give MMC for CCCCCCCCCCCCOc1ccc(B(O)O)cn1 tested on Quinolone resistance protein NorA (Staphylococcus aureus) (UniProt P0A0J7).
Response given: > 16 µg/mL

Source of measurements: ChEMBL document CHEMBL3414455
